List of IC50 tested on Prothrombin (Homo sapiens).
Numeric only. Scale: nM

CS(=O)(=O)Nc1c(CCC2CCCCC2)ccn(CC(=O)N[C@H]2CCCN(C(=N)N)C2O)c1=O (stereo partly specified)	256

Endpoint output: IC50 of CS(=O)(=O)Nc1c(CCc2ccccc2)ccn(CC(=O)N[C@H]2CCCN(C(=N)N)C2O)c1=O (stereo partly specified) . Value? 7.95

Quick check: IC50 of N=C(N)N1CCC[C@H](NC(=O)CN2CCCC(NS(=O)(=O)Cc3ccccc3)C2=O)C1O (stereo partly specified) ? 6.2

###

Reported IC50 values follow for various molecules
- tgt: Serine protease 1 (Homo sapiens, UniProt P07477)
- Sequence (P07477 whole entry): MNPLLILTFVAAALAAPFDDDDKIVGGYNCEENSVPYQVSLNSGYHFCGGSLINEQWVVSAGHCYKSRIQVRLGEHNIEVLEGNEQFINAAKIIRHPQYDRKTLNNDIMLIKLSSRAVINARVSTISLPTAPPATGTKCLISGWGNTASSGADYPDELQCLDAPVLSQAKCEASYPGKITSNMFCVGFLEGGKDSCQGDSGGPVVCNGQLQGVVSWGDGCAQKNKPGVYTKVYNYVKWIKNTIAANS
Note: a bare number is incomplete; add the unit.

Worked cases, answers included:
CS(=O)(=O)Nc1c(CCc2ccccc2)ccn(CC(=O)N[C@H]2CCCN(C(=N)N)C2O)c1=O (some centres undefined)	135 nM
N=C(N)N1CCC[C@H](NC(=O)CN2CCCC(NS(=O)(=O)Cc3ccccc3)C2=O)C1O (some centres undefined)	791 nM
CNS(=O)(=O)Nc1c(CCc2ccccc2)ccn(CC(=O)N[C@H]2CCCN(C(=N)N)C2O)c1=O (some centres undefined)	103 nM

// next entry
Please tell me: IC50 of N=C(N)N1CCC[C@H](NC(=O)Cn2ccc(CCc3ccccc3)c(NS(=O)(=O)CC(F)(F)F)c2=O)C1O (some centres undefined) , system Serine protease 1 (Homo sapiens, UniProt P07477)? 1220 nM

###

Coagulation factor X (Homo sapiens, UniProt P00742) data, read-out IC50
Sequence (P00742 41-179 limits assumed): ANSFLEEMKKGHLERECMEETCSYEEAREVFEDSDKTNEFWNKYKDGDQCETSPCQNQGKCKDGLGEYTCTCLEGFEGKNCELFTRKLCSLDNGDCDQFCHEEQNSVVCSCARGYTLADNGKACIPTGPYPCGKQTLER
Sequence (P00742 235-488 limits assumed): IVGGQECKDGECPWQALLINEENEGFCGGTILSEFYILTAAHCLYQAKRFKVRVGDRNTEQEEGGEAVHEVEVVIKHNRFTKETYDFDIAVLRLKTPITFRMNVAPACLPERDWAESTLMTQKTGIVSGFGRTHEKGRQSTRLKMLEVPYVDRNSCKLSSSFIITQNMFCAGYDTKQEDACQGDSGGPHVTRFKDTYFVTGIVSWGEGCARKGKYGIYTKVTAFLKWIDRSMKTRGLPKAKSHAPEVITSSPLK
Lab book: enter the figure in µM, no units written.

What does the record list as IC50 for CNS(=O)(=O)Nc1c(CCc2ccccc2)ccn(CC(=O)N[C@H]2CCCN(C(=N)N)C2O)c1=O (stereo not given in full) ? 2.5

Please look up its IC50: N=C(N)N1CCC[C@H](NC(=O)CN2CCCC(NS(=O)(=O)Cc3ccccc3)C2=O)C1O (stereo not given in full) 2.5

###

Assay read-out pIC50; system under study: Prothrombin (Homo sapiens, UniProt P00734).
Keep it numeric: pIC50 is minus log10 of the concentration in mol/L.

The following compounds have reported results that may help.
CNS(=O)(=O)Nc1c(CCc2ccccc2)ccn(CC(=O)N[C@H]2CCCN(C(=N)N)C2O)c1=O (stereo partly drawn)	7.30
N=C(N)N1CCC[C@H](NC(=O)Cn2ccc(CCc3ccccc3)c(NS(=O)(=O)CC(F)(F)F)c2=O)C1O (stereo partly drawn)	6.71

--- query ---
Hi! What's the reported pIC50 for CS(=O)(=O)Nc1c(CCCc2ccccc2)ccn(CC(=O)N[C@H]2CCCN(C(=N)N)C2O)c1=O (stereo partly drawn) on Prothrombin (Homo sapiens, UniProt P00734)? 6.69

###

Below, each entry is listed alongside its reported pIC50.
- tgt: Coagulation factor X (Homo sapiens)
- assay-protocol: Concentration required for the in vitro inhibitory activity against human enzyme, Factor Xa cleavage of the chromogenic substrate
pIC50: −log10 of the molar value.

Some entries whose results are on file:
CS(=O)(=O)Nc1c(CCc2ccccc2)ccn(CC(=O)N[C@H]2CCCN(C(=N)N)C2O)c1=O (stereo partly drawn)	< 5.60
CC(=O)Nc1c(CCc2ccccc2)ccn(CC(=O)N[C@H]2CCCN(C(=N)N)C2O)c1=O (stereo partly drawn)	< 5.60

Next item in the queue.
Reported pIC50 for N=C(N)N1CCC[C@H](NC(=O)Cn2ccc(CCc3ccccc3)c(NS(=O)(=O)CC(F)(F)F)c2=O)C1O (stereo partly drawn) : what is it? < 5.60

Hey, just so you know, these numbers are from ChEMBL document CHEMBL1132080.
